Origin of measurements: the supplement of paper PMC3898565

System: U87
Assay: cell viability relative to vehicle control; higher = less growth inhibition (less active)
Conditions: 10 µM; 72 h
Counter-ions that a name gives are not always drawn.

molecule: CCOc1cc(CC(=O)N[C@@H](CC(C)C)c2ccccc2N2CCCCC2)ccc1C(=O)O
cell viability [%]: 105
//
molecule: C=C1/C(=C\C=C2/CCC[C@]3(C)[C@@H]([C@H](C)/C=C/[C@@H](O)C4CC4)CC[C@@H]23)C[C@@H](O)C[C@@H]1O
cell viability [%]: 100
//
molecule: CCOC(=O)O[C@]1(C(=O)OCCl)CC[C@H]2[C@@H]3CCC4=CC(=O)C=C[C@]4(C)[C@H]3[C@@H](O)C[C@@]21C
cell viability [%]: 104
//
molecule: C[C@]12CCC(=O)C=C1CC[C@@H]1[C@@H]2C(=O)C[C@@]2(C)[C@H]1CC[C@]2(O)C(=O)CO
cell viability [%]: 102
//
molecule: COc1ccccc1OCC(O)CN1CCN(CC(=O)Nc2c(C)cccc2C)CC1 (stereo not given) [Ranolazine dihydrochloride]
cell viability [%]: 103
//
molecule: COc1cc(C(=O)NS(=O)(=O)c2ccccc2C)ccc1Cc1cn(C)c2ccc(NC(=O)OC3CCCC3)cc12
cell viability [%]: 104
//
molecule: COc1cc(-c2ccc(=O)[nH]n2)ccc1OC(F)F
cell viability [%]: 111
//
molecule: CC(C)(C)NCC(O)c1ccc(O)c(CO)c1 (stereo not given)
cell viability [%]: 98.8
//
molecule: CC(C)NCC(O)c1ccc(NS(C)(=O)=O)cc1 (stereo not given)
cell viability [%]: 102
//
molecule: O=C(O)COCCN1CCN([C@H](c2ccccc2)c2ccc(Cl)cc2)CC1
cell viability [%]: 101
//
molecule: COc1ccc(CN2CCN(C(c3ccc(F)cc3)c3ccc(F)cc3)CC2)c(OC)c1OC
cell viability [%]: 69.3
//
molecule: O=C(NCCO[N+](=O)[O-])c1cccnc1
cell viability [%]: 101
//
molecule: CNCC[C@H](Oc1cccc2ccccc12)c1cccs1
cell viability [%]: 101
//
molecule: CNC(=C[N+](=O)[O-])NCCSCc1csc(CN(C)C)n1
cell viability [%]: 99.1
//
molecule: CCN1CCN(c2cc3c(cc2F)c(=O)c(C(=O)O)cn3C2CC2)CC1
cell viability [%]: 109
//
molecule: CCCc1nc2c(C)cc(-c3nc4ccccc4n3C)cc2n1Cc1ccc(-c2ccccc2C(=O)O)cc1
cell viability [%]: 98.3
//
molecule: CN(C)CCC(c1ccc(Cl)cc1)c1ccccn1 (stereo not given)
cell viability [%]: 109
//
molecule: CCCCCCNC(=O)n1cc(F)c(=O)[nH]c1=O
cell viability [%]: 55.1
//
molecule: CN(C)CCOC(c1ccccc1)c1ccccc1 [Diphenhydramine]
cell viability [%]: 103
//
molecule: CCC(C)(C)N=C(NC#N)Nc1cccnc1
cell viability [%]: 107

----------
System: U87
Assay: cell viability relative to vehicle control; higher = less growth inhibition (less active)
Settings: 10 µM; 72 h
measured parameter: cell viability (%)

molecule: CC[N+](C)(CC)CCOC(=O)C(O)(c1ccccc1)C1CCCCC1 (stereo not drawn)
measured parameter: cell viability
reported result: 109
//
molecule: C[C@@H]1O[C@@H](OC[C@H]2O[C@@H](Oc3c(-c4ccc(O)c(O)c4)oc4cc(O)cc(O)c4c3=O)[C@H](O)[C@@H](O)[C@@H]2O)[C@H](O)[C@H](O)[C@H]1O
measured parameter: cell viability
reported result: 91.9
//
molecule: CN1CCC(=C2c3ccccc3CCc3sccc32)CC1
measured parameter: cell viability
reported result: 94.7
//
molecule: Cc1[nH]c(=O)c(C#N)cc1-c1ccncc1
measured parameter: cell viability
reported result: 109
//
molecule: O=C(O)c1cc(/N=N/c2ccc(S(=O)(=O)Nc3ccccn3)cc2)ccc1O
measured parameter: cell viability
reported result: 102
//
molecule: CCCc1nc(C(C)(C)O)c(C(=O)OCc2oc(=O)oc2C)n1Cc1ccc(-c2ccccc2-c2nnn[nH]2)cc1
measured parameter: cell viability
reported result: 102
//
molecule: C[C@@H]1CN(CCCn2c3ccccc3c3ccccc32)C[C@H](C)N1
measured parameter: cell viability
reported result: 109
//
molecule: O=c1c(O[C@@H]2O[C@H](CO)[C@@H](O)[C@H](O)[C@H]2O)c(-c2ccc(O)c(O)c2)oc2cc(O)cc(O)c12
measured parameter: cell viability
reported result: 104

----------
System: U87;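 also: viable cell number estimated from Alamar Blue fluorescence read at 560/90, part of a single-dose primary screen of an FDA-approved drug library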
Test: cell viability relative to vehicle control; higher = less growth inhibition (less active)
Settings: 10 µM; 72 h
Measured cell viability accompanies every entry in the list below.

molecule: CNNCc1ccc(C(=O)NC(C)C)cc1
cell viability [%]: 104
//
molecule: CC(=O)Nc1ccc(CC(=O)O)cc1
cell viability [%]: 100
//
molecule: COCC1=C(C(=O)OC(C)OC(=O)OC(C)C)N2C(=O)[C@@H](NC(=O)/C(=N\OC)c3csc(N)n3)[C@H]2SC1 (stereo partly drawn)
cell viability [%]: 106
//
molecule: CN1CCCCC1CCN1c2ccccc2Sc2ccc([S+](C)[O-])cc21 (stereo not drawn)
cell viability [%]: 105
//
molecule: O=C(CCCN1CC=C(n2c(=O)[nH]c3ccccc32)CC1)c1ccc(F)cc1
cell viability [%]: 106
//
molecule: CC(=O)NC[C@H]1CN(c2ccc(N3CCOCC3)c(F)c2)C(=O)O1
cell viability [%]: 103
//
molecule: C[C@]12CC[C@@H]3c4ccc(O)cc4CC[C@H]3[C@@H]1CC[C@@H]2O
cell viability [%]: 97.2
//
molecule: c1ccc(-c2ccc(C(c3ccccc3)n3ccnc3)cc2)cc1 (stereo not drawn)
cell viability [%]: 101
//
molecule: CCN1CCCC1CNC(=O)c1cc(S(=O)(=O)CC)c(N)cc1OC (stereo not drawn) [Amisulpride]
cell viability [%]: 101
//
molecule: CC(=O)NCCCCCCNC(C)=O
cell viability [%]: 104
//
molecule: CCN(CC)CC(=O)Nc1c(C)cccc1C
cell viability [%]: 94.8
//
molecule: Nc1ccc2cn[nH]c2c1
cell viability [%]: 108
//
molecule: CC(C)c1nc(CN(C)C(=O)N[C@H](C(=O)N[C@@H](Cc2ccccc2)C[C@H](O)[C@H](Cc2ccccc2)NC(=O)OCc2cncs2)C(C)C)cs1
cell viability [%]: 102
//
molecule: CN(C)CCOc1ccc(/C(=C(/CCCl)c2ccccc2)c2ccccc2)cc1
cell viability [%]: 106
//
molecule: CC1=C(C(=O)O)N2C(=O)[C@@H](NC(=O)[C@H](N)c3ccccc3)[C@H]2SC1 [Cephalexin monohydrate]
cell viability [%]: 100
//
molecule: O=c1c(O[C@@H]2O[C@H](CO)[C@H](O)[C@H](O)[C@H]2O)c(-c2ccc(O)c(O)c2)oc2cc(O)cc(O)c12
cell viability [%]: 106
//
molecule: O=C(O)C[C@H](O)C[C@H](O)/C=C/c1c(C2CC2)nc2ccccc2c1-c1ccc(F)cc1
cell viability [%]: 28.6
//
molecule: CN1CCc2cc(Cl)c(O)cc2[C@@H](c2ccccc2)C1
cell viability [%]: 97.5
//
molecule: CCOC(=O)[C@H](CCc1ccccc1)N[C@H]1CCc2ccccc2N(CC(=O)O)C1=O
cell viability [%]: 107
//
molecule: COc1cc2c(cc1OC)C(=O)C(CC1CCN(Cc3ccccc3)CC1)C2 (stereo not drawn)
cell viability [%]: 99.1
//
molecule: CN1CCN(c2nc3cc(C(F)(F)F)ccc3n3cccc23)CC1
cell viability [%]: 111
//
molecule: O=C1c2c(O)cc(O)cc2O[C@H](c2ccc(O)c(O)c2)[C@H]1O
cell viability [%]: 90.7
//
molecule: COC(=O)C1=C(C)NC(C)=C(C(=O)OC(C)C)C1c1cccc2nonc12 (stereo not drawn)
cell viability [%]: 104
//
molecule: O=C(NCCN1CCOCC1)c1ccc(Cl)cc1 [4-Chloro-N-(2-morpholin-4-yl-ethyl)-benzamide]
cell viability [%]: 80.9
//
molecule: C[C@H]1[C@H](OC(=O)CCC(=O)O)O[C@@H]2O[C@@]3(C)CC[C@H]4[C@H](C)CC[C@@H]1[C@@]24OO3
cell viability [%]: 98.9
//
molecule: CC[C@H](C)C(=O)O[C@H]1C[C@H](O)C=C2C=C[C@H](C)[C@H](CC[C@@H](O)C[C@@H](O)CC(=O)O)[C@H]21 [PRAVASTATIN Sodium]
cell viability [%]: 106
//
molecule: O=C1N(c2ccccc2)c2ccccc2C1(Cc1ccncc1)Cc1ccncc1
cell viability [%]: 106
//
molecule: Cc1cccc(C)c1NC(=O)C1CCCCN1C (stereo not drawn)
cell viability [%]: 106
//
molecule: C[C@]12CCC(=O)C=C1CC[C@@H]1[C@@H]2CC[C@@]2(C)[C@H]1CC[C@]2(O)C(=O)CO
cell viability [%]: 104
//
molecule: Fc1ccc([C@@H]2CCNC[C@H]2COc2ccc3c(c2)OCO3)cc1
cell viability [%]: 105
//
molecule: Nc1nc(N)nc(-c2cc(Cl)ccc2Cl)n1
cell viability [%]: 95.6
//
molecule: CN[C@H]1CC[C@@H](c2ccc(Cl)c(Cl)c2)c2ccccc21
cell viability [%]: 34.2
//
molecule: O=C1CC2(CCCC2)CC(=O)N1CCNCC1COc2ccccc2O1 (stereo not drawn)
cell viability [%]: 110
//
molecule: COc1nc(C)nc(Cl)c1NC1=NCCN1
cell viability [%]: 102
//
molecule: CO[C@H]1/C=C/O[C@@]2(C)Oc3c(C)c(O)c4c(O)c(c5c(nc6cc(C)ccn65)c4c3C2=O)NC(=O)/C(C)=C\C=C\[C@H](C)[C@H](O)[C@@H](C)[C@@H](O)[C@@H](C)[C@H](OC(C)=O)[C@@H]1C
cell viability [%]: 96.1
//
molecule: C[C@H]1COc2c(N3CCN(C)CC3)c(F)cc3c(=O)c(C(=O)O)cn1c23
cell viability [%]: 103
//
molecule: COC(=O)Nc1nc2cc(C(=O)c3ccc(F)cc3)ccc2[nH]1
cell viability [%]: 30
//
molecule: COc1ccc(CC2c3cc(OC)c(OC)cc3CC[N+]2(C)CCC(=O)OCCCCCOC(=O)CC[N+]2(C)CCc3cc(OC)c(OC)cc3C2Cc2ccc(OC)c(OC)c2)cc1OC (stereo not drawn)
cell viability [%]: 110
